# assay.protocol: chemical genetic growth profiling, strain panel (AID 1159580);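 note: tested at 20 µM; growth read once vehicle control cultures reached saturation at 30 °C; 1 = growth at the plate median or of vehicle wells; lower values mean less growth of the strain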
# condition.label: S. cerevisiae deletion strains, growth OD, locus YOR106W, strain vam3, active compounds read low
About 2,000 (36%) of roughly 5,500 compounds were called active. Another 18% or so got no clear call; they are omitted. Some of the results follow.
Measured normalized growth, listed per entry for reference.

>  <molecule>
CC1OC(O[C@H]2/C=C/C=C/C=C/C=C/C=C/C=C/C=C/[C@H](C)[C@@H](O)[C@@H](C)[C@H](C)OC(=O)CC(O)CC(O)CCC(O)C(O)CC(O)C[C@]3(O)C[C@H](O)C(C(=O)O)C(C2)O3)C(O)[C@H](N)C1O (stereo partly drawn)

>  <normalized growth>
0.983

$$$$
>  <molecule>
Oc1c(Cl)cc(Cl)c(Cl)c1Cc1c(O)c(Cl)cc(Cl)c1Cl

>  <normalized growth>
0.0665

$$$$
>  <molecule>
COC(=O)[C@@H]1OC(=O)C2OC23[C@@]1(C)CCC1[C@@]2(C)CCC(=O)C(C)(C)C2C[C@@H](OC(C)=O)[C@]13C (stereo partly drawn)

>  <normalized growth>
1.01

$$$$
>  <molecule>
CC(O)(P(=O)(O)O)P(=O)(O)O

>  <normalized growth>
1.02

$$$$
>  <molecule>
C[C@@H]1CC[C@H]2C(C)(C)C3CC12CC[C@@]3(C)O (stereo partly drawn)

>  <normalized growth>
0.713

$$$$
>  <molecule>
Cc1cccc(C)c1NC(=O)C1CCCCN1C (stereo not drawn)

>  <normalized growth>
1.01

$$$$
>  <molecule>
CC(=O)O[C@H]1CC[C@@]2(C)C(C[C@@H](OC(C)=O)[C@]3(C)C2CC[C@@]2(C)[C@H](c4ccoc4)OC(=O)[C@H]4O[C@]423)C1(C)C (stereo partly drawn)

>  <normalized growth>
1.03

$$$$
>  <molecule>
COC(=O)[C@@H]1OC(=O)C2OC23[C@@]1(C)CCC1[C@]2(C)C(C[C@@H](O)[C@]13C)C(C)(C)[C@H](OC(C)=O)C[C@@H]2OC(C)=O (stereo partly drawn)

>  <normalized growth>
1.02

$$$$
>  <molecule>
COc1ccc2c(c1)OCC(Cc1ccc(O)c(OC)c1)C2=O (stereo not drawn)

>  <normalized growth>
0.952

$$$$
>  <molecule>
COP(=S)(OC)Oc1ccc([N+](=O)[O-])cc1

>  <normalized growth>
0.947

$$$$
>  <molecule>
COP(=S)(OC)Oc1ccc(Sc2ccc(OP(=S)(OC)OC)cc2)cc1

>  <normalized growth>
0.999

$$$$
>  <molecule>
CC(=O)O[C@H]1C[C@@H](OC(C)=O)C(C)(C)C2C[C@@H](O)[C@]3(C)C(CC[C@@]4(C)[C@H](c5ccoc5)OC(=O)[C@H]5O[C@]543)[C@]21C (stereo partly drawn)

>  <normalized growth>
1.02

$$$$
>  <molecule>
O=C(O)CCCCCCCC(=O)O

>  <normalized growth>
1.03

$$$$
>  <molecule>
CC12CCCCC1(Br)[N+](=O)N2[O-] (stereo not drawn)

>  <normalized growth>
0.884

$$$$
>  <molecule>
COc1ccc(CCC(=O)c2c(O)cc(O[C@@H]3O[C@H](CO)C(O)[C@H](O)C3O[C@@H]3O[C@@H](C)[C@H](O)[C@@H](O)[C@H]3O)cc2O)cc1O (stereo partly drawn)

>  <normalized growth>
0.992

$$$$
>  <molecule>
C=C[C@@]1(C)CC(=O)[C@@]2(O)[C@](C)(O1)[C@@H](OC(C)=O)[C@@H](O)C1C(C)(C)CC[C@H](O)[C@@]12C (stereo partly drawn)

>  <normalized growth>
0.919

$$$$
>  <molecule>
CC(=O)O[C@]1(C)CC[C@@]23CC1C(C)(C)[C@@H]2CC[C@H]3C

>  <normalized growth>
0.979

$$$$
>  <molecule>
CN[C@@H]1C(OC2[C@H](O[C@H]3[C@H](O)[C@@H](O)[C@H](N=C(N)N)[C@@H](O)[C@@H]3N=C(N)N)OC(C)[C@]2(O)CO)OC(CO)C(O)C1O (stereo partly drawn)

>  <normalized growth>
1.05

$$$$
>  <molecule>
COC[C@]12CN(C=O)C3[C@@H]4[C@H](OC)C1[C@]3(C1CC3(O)C(OC)C(O)C4(OC(C)=O)C1C3OC(=O)c1ccccc1)[C@@H](OC)C[C@H]2O (stereo partly drawn)

>  <normalized growth>
1

$$$$
>  <molecule>
O=c1cccc2n1CC1CC2CN2CCCC[C@@H]12 (stereo partly drawn)

>  <normalized growth>
0.985

$$$$
>  <molecule>
CC(=O)O[C@@H]1CC2C(C)(C)C(=O)C3OC3[C@]2(C)C2CC[C@@]3(C)[C@H](c4ccoc4)OC(=O)C4OC43[C@@]21C (stereo partly drawn)

>  <normalized growth>
0.994

$$$$
>  <molecule>
Fc1ccc([C@@H]2CCNC[C@H]2COc2ccc3c(c2)OCO3)cc1

>  <normalized growth>
1

$$$$
>  <molecule>
CC1(C)N([O-])[N+](=O)C1(C)Br (stereo not drawn)

>  <normalized growth>
0.966

$$$$
>  <molecule>
CN(C)CCC(c1ccccc1)c1ccccn1 (stereo not drawn)

>  <normalized growth>
1

$$$$
>  <molecule>
Clc1ccccc1CN1CCc2sccc2C1

>  <normalized growth>
0.977

$$$$
>  <molecule>
O=C(O)C1CCCNC1 (stereo not drawn)

>  <normalized growth>
1.01

$$$$
>  <molecule>
N[C@@H](C(=O)O)[C@@H](O)[C@H](O)[C@H](O)CO

>  <normalized growth>
1.07

$$$$
>  <molecule>
C=CCS(=O)C[C@H](N)C(=O)O (stereo partly drawn)

>  <normalized growth>
1

$$$$
>  <molecule>
CC(C)(S)[C@@H](N)C(=O)O

>  <normalized growth>
1.03

$$$$
>  <molecule>
C[C@]12C=CC(=O)C=C1CCC1C2[C@@H](O)C[C@@]2(C)C1CC[C@]2(O)C(=O)CO (stereo partly drawn)

>  <normalized growth>
0.977

$$$$
>  <molecule>
CC(=O)O[C@@H]1CC2C(C)(C)[C@@H](O)CC[C@]2(C)C2CC[C@@]3(C)[C@H](c4ccoc4)OC(=O)[C@H]4O[C@]43[C@@]21C (stereo partly drawn)

>  <normalized growth>
0.984

$$$$
>  <molecule>
O=C(O)[C@@H](S)[C@@H](S)C(=O)O

>  <normalized growth>
0.496

$$$$
>  <molecule>
CCCCC(=O)O[C@]1(C(=O)CO)CCC2C3CCC4=CC(=O)CC[C@]4(C)C3[C@@H](O)C[C@@]21C (stereo partly drawn)

>  <normalized growth>
0.977

$$$$
>  <molecule>
Cc1oncc1C(=O)Nc1ccc(C(F)(F)F)cc1

>  <normalized growth>
0.955

$$$$
>  <molecule>
COC(=O)[C@H](c1ccccc1Cl)N1CCc2sccc2C1

>  <normalized growth>
1.03

$$$$
>  <molecule>
FC(F)(F)c1cccc(N2CCNCC2)c1

>  <normalized growth>
1

$$$$
>  <molecule>
CC1(C)C(=O)[C@@H]2O[C@@H]2[C@@]2(C)C1C[C@@H](O)[C@]1(C)C2CC[C@@]2(C)[C@H](c3ccoc3)OC(=O)C3OC321 (stereo partly drawn)

>  <normalized growth>
0.995

$$$$
>  <molecule>
NCCCCC(=O)O

>  <normalized growth>
1.02

$$$$

Value source: PubChem BioAssay AID1159580
